Source: ChEMBL document CHEMBL1201862

# Test system: P388;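 further: compound exposure lasted 48 hours before growth was measured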
# experimental-details: cells
# Assay type: functional
# assay-setup: Mus musculus
The source made the active and inactive calls.
Give your call using only these classes: Yes (active), No (inactive)

Per the assay record, what outcome was assigned to CNC(=O)C(C)C1CCC2(C)C=CC(=O)C(C)=C2C1O (centres undefined) ?
No

One more compound: COc1cc(/C=C/C(=O)O)ccc1C(=O)OCc1ccccc1
No

One more compound: CN(C)CCNC(=O)c1cccc2cc3cc(O)ccc3nc12
Yes

Below: the item to evaluate.
Per the assay record, what outcome was assigned to CNC(=O)OCc1nc(SC(C)C)n(C)c1COC(=O)NC ?
No

###

# target: Fatty acid synthase (Homo sapiens)
# Sequence (P49327 whole entry, the tested form may be a part): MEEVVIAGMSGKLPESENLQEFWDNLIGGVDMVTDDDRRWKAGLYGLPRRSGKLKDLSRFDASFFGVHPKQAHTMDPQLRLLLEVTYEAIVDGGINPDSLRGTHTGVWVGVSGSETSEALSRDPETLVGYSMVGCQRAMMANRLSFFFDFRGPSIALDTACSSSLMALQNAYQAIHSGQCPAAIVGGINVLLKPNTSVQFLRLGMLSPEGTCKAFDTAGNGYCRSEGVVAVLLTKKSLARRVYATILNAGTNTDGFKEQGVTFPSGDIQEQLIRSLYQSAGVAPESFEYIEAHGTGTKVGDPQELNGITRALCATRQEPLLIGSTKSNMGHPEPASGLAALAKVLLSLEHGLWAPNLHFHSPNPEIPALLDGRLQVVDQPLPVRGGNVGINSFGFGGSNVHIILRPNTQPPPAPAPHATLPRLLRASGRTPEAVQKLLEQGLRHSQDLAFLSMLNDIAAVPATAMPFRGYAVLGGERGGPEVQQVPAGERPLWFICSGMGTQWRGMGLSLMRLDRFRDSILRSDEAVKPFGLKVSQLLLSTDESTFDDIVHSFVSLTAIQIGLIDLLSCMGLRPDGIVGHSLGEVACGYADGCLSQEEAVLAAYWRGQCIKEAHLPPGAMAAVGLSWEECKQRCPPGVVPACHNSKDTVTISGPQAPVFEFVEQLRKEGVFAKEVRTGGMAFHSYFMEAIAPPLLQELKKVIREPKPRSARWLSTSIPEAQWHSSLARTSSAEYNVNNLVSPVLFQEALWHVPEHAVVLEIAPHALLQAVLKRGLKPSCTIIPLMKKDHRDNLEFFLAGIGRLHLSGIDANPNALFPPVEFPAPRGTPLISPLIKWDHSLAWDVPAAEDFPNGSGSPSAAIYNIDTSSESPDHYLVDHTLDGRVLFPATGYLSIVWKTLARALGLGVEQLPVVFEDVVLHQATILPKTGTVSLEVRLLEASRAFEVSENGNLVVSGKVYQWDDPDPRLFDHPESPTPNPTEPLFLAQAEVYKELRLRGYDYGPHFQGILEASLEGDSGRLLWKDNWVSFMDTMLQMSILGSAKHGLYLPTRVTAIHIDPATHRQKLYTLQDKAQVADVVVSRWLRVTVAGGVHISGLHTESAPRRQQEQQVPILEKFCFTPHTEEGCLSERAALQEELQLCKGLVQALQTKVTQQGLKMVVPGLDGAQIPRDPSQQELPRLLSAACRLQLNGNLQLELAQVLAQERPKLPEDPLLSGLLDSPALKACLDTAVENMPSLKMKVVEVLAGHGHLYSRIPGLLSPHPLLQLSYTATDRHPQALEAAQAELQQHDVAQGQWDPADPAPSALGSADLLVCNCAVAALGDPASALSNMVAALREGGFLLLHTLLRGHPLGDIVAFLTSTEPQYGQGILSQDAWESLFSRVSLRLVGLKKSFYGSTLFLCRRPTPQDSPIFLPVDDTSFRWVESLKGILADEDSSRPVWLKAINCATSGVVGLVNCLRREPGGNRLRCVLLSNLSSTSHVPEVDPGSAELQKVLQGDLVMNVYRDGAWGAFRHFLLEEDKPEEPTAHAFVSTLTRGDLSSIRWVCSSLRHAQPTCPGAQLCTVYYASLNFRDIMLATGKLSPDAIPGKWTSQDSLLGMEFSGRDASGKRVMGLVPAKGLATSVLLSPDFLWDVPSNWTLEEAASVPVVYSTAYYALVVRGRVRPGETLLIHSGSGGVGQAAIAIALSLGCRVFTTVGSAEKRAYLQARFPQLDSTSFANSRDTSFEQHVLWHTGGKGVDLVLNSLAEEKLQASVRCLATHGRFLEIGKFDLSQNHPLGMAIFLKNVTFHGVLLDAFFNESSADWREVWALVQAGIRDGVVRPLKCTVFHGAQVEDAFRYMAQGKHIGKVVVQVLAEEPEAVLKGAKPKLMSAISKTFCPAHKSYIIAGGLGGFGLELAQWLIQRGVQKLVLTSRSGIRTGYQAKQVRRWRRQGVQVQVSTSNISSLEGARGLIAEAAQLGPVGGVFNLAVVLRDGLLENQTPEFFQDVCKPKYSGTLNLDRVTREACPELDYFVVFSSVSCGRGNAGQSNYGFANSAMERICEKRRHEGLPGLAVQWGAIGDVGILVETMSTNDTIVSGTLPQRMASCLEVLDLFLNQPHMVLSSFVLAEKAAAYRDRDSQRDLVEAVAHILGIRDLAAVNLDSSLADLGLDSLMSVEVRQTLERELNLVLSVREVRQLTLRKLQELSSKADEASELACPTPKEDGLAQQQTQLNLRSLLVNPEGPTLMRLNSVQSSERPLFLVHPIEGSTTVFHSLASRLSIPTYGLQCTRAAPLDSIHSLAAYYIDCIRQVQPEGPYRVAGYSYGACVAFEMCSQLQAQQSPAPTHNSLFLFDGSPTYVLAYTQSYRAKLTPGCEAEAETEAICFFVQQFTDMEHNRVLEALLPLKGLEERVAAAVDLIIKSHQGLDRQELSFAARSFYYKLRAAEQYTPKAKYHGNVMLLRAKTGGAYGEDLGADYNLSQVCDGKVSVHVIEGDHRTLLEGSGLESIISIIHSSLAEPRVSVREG
# experimental-details: FAS thioesterase domain inhibitors, dose response, biochemical, endpoint fluorescence intensity, uHTS hits (AID 624327);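 further: fluorescence from hydrolysis of an O-methyl fluorescein acyl ester substrate by the enzyme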
# Format: functional
Active and inactive are the calls of the source.
quantity-measured: IC50

Record excerpt, results attached:
GET /values?readout=IC50&item= CCOc1ccc(CCNC(=O)COC(=O)c2cc([N+](=O)[O-])ccc2N2CCOCC2)cc1OCC
10.1 µM (active)

One more compound: COc1ccc(C(=O)NCCNc2ncc(C(F)(F)F)cc2Cl)cc1[N+](=O)[O-]
12.7 µM (active)

One more compound: CCCCCC1CC(CC(=O)Nc2ccc([N+](=O)[O-])cc2)C(=O)O1 (stereo unspecified)
16.8 µM (active)

One more compound: O=c1ccc2c(-c3ccccc3S(=O)(=O)O)c3ccc(O)c(O)c3oc-2c1O
16.2 µM (active)

One more compound: COC(=O)CC(NC(=O)Nc1ccc(C)cc1)c1cccc([N+](=O)[O-])c1 (stereo unspecified)
11.5 µM (active)

Next:
GET /values?readout=IC50&item= Cc1cc(Br)ccc1NC(=O)CN(C)C(=O)c1cc([N+](=O)[O-])ccc1N1CCOCC1
8.23 µM (active)

One more compound: O=C1CN(C(=O)c2cc([N+](=O)[O-])ccc2Cl)C(c2ccccc2)c2cc(F)ccc2N1 (stereo unspecified)
1.36 µM (active)

One more compound: COc1ccc(C2CC23N=C(c2ccccc2)OC3=O)cc1 (stereo unspecified)
0.724 µM (active)

One more compound: Cc1nn(CCOc2ccc(Br)cc2)c(C)c1[N+](=O)[O-]
15.9 µM (active)

One more compound: CN1C[C@H](C(=O)NC2(C)OC3(O)[C@@H]4CCCN4C(=O)[C@H](Cc4ccccc4)N3C2=O)CC2c3cccc4[nH]cc(c34)C[C@H]21 (stereo partly specified)
10.3 µM (active)

One more compound: O=C(Nn1c(C2CCCCC2)nc2ccccc2c1=O)c1ccc([N+](=O)[O-])cc1Cl
19.3 µM (active)

###

# target: Paired box protein Pax-8 (Homo sapiens)
# Sequence (Q06710 whole entry): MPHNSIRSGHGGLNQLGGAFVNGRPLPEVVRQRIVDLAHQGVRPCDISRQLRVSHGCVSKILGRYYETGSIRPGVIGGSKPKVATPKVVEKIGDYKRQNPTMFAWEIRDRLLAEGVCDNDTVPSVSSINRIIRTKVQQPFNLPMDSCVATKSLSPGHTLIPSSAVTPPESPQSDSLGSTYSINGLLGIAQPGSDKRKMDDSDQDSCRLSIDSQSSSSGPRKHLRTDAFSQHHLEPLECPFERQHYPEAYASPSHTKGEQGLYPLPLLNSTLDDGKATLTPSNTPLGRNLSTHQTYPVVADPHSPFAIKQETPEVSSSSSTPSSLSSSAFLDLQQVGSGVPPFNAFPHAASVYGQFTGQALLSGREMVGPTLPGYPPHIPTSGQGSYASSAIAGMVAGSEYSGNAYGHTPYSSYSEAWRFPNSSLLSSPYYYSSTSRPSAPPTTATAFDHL
# experimental-details: inhibitors of PAX8-driven TPO luciferase reporter, dose response, RMG-I cells, cherry-pick (AID 687027);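 further: luciferase reporter driven by Pax8 target thyroperoxidase promoter measured by SteadyGlo luminescence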
# Type: functional, cell-based
Calls of active or inactive are those of the source.
quantity-measured: AC50

Record excerpt, results attached:
GET /values?readout=AC50&item= COc1cc(/C=C2\SC(=S)N(CCC(=O)N3CCCCC3)C2=O)cc(OC)c1OC
8.62 µM (active)

One more molecule: C[C@H](CO)N1C[C@H](C)[C@@H](CN(C)Cc2ccc(Oc3ccccc3)cc2)OCc2ccccc2-c2c(n(C)c3ccccc23)C1=O
17.1 µM (active)

One more molecule: C[C@@H]1CCCCO[C@@H](CN(C)C(=O)Nc2cccc3ccccc23)[C@H](C)CN([C@H](C)CO)C(=O)c2cc(NS(=O)(=O)c3ccc(Cl)cc3)ccc2O1
5.29 µM (active)

One more molecule: C[C@H](CO)N1C[C@H](C)[C@H](CN(C)Cc2ccc(C(F)(F)F)cc2)Oc2ccc(NS(=O)(=O)c3ccc(F)cc3)cc2CC1=O
11.4 µM (active)

One more molecule: CC(=O)OC(C)(C)/C=C/C(=O)[C@](C)(O)C1[C@H](O)C[C@@]2(C)C3CC=C4C(C=C(O[C@@H]5O[C@H](CO)[C@@H](O)[C@H](O)[C@H]5O)C(=O)C4(C)C)[C@]3(C)C(=O)C[C@]12C (some centres not stated)
7.14 µM (active)

One more molecule: C=CC[C@@H](CC(=O)N[C@H](CO)Cc1ccccc1)C(=O)N[C@H](COC(=O)[C@@H](CC=C)Cc1ccc(F)cc1)Cc1c[nH]c2ccccc12
8.96 µM (active)

Please look at the following molecule next.
GET /values?readout=AC50&item= COc1ccc2nc(C)cc(N/N=C/c3cccc(OC)c3O)c2c1
12 µM (active)
